Hello, the source for this data is paper PMC3817407, in case you need it.

- assayed-system: T1, ECF28_1088
- T1 chain: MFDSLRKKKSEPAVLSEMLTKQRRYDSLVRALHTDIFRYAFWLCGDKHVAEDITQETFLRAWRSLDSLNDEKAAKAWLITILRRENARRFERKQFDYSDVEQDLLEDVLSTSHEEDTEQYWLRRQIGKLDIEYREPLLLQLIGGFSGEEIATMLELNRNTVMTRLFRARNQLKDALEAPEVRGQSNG
The following binders are shown together with reported fold repression values.
property-label: fold repression

binder	reading
AS02_915 (protein) MEKTGQEWVSASVDGETDRQTLAELAADTDSHAKWQRYHLMGDAMRDELPQAMPLDLSARIAAALEDEPTILAPKVEREATQAPSRAVVVPFMRQLGQYGIAAAVALMAVVGVQNYQSTQDDAPLPVLNTRPLVGTATPVSLQTGPVANQNQGNANDQLLEQRRRINAYLQDHMLQQRLNTGAVVDDNSEVTPIPVNR	2.38
AS31_34 (protein) MNKEKLSDHLKSEWKKIDQTANPSIPNQKELLHQLSQMKAEYRKKLLQEIILFVFCALMVVSAAILAFTQAPAVFIVLQVCVLAVLPILIAAEKKRHLGECEVKRG	1.59
AS20_992 (protein) MTPERFVHLADAYGADLQRWPSAERAAAQALLDCGDAQAVAALRQAHWLDSQLDRYQVPAPSPALAQRIIAAAQQPGAPFWSRYAGWLASLGWVGVGLTGVAAGMLAVALSLPLSTSAEALPSVFDQSDAEFVLSINAEEAEQ	2.27
AS01_3473 (protein) MSNYDNAELLALWLEGKLTPKQRDEFEQRCIQDSQFAEQVDAAAMVKIGADDYSSSEVPQWNKAATFEPQQANNSGSWLSGVSLVTSALAIVLVLTGTQVTTSEGELRIRFGSGQSEQALVKLVDSKLDAFKQNQQDAFTLYAQTLQQQQSESASQLTNYLLSSSRKERREDFAELIKFVNQQRSDDQLFYARQLNQLQQDVYHDATGVALESIQQ	1.59
AS37_2513 (protein) MSSAPATKEEVDFALKVRRALDERAASLPDATTDRLAAARRAALARKKPDAAIVLVPALAGSAGTLELRPPGEPRKSLARRLARAWPLALLLAGLIGIAYWEDMQRTAELADIDAAMLSDNLPLTAYLDHGFNAYLSHTH	3.31
AS04_1609 (protein) MNRTTEQRNAEVMKTIGLLDQMPRVEVDHLFRVRLMQRIEAMEVKKTSWSALPGGAFNPRLAFMALLLMLNIASALMLFMHGTPQATGSSGAIAESLTEDYGGPALSYYDDQTTIDR	0.742
AS15_436 (protein) MAQSTEPKASPQEATAKGGDNTKGKSRKELQQQIDENLRRVYEEALVQEVPDRFAMLLDQLRQKGTGK	2.98
